# Protocol description: Quantitative High-Throughput drug screen in 47 multiple myeloma cell lines against the NCATS MIPE library collection: KMS11_JCRBsus cell viability assay (AID 1919873); also: nearly all actives have a fitted effect of over 50% in size
# Condition description: KMS11 myeloma viability, CellTiter-Glo ATP luminescence, 48 h; series mostly up to 45.8 µM
Inconclusive results are not listed. Active and inactive are the calls of the source. Calls follow the shape of the dose curve; as a rule, active = well fitted cell-killing curve with a large enough effect; inconclusive = small, poorly fitted or top-dose-only effect, or effect the other way; inactive = no such curve, though single readings can be large or run the other way.
Possible outcomes: active, inactive

Compound	Assigned class
Nc1cc(C(F)(F)F)c(-c2cc(N3CCOCC3)nc(N3CCOCC3)n2)cn1	active
CNc1nccc(-c2cccnc2Oc2cc(C(=O)Nc3cccc(C(F)(F)F)c3)ccc2C)n1	active
CC[C@H](CO)Nc1nc(NCc2ccccc2)c2ncn(C(C)C)c2n1	active
Cc1cc(N2CCOCC2)cc2[nH]c(-c3c(NC[C@@H](O)c4cccc(Cl)c4)cc[nH]c3=O)nc12	active
c1nc2nc(Nc3ccc(N4CCOCC4)cc3)nc(NC3CCCCC3)c2[nH]1	active
Cc1cn(-c2cc(NC(=O)c3ccc(C)c(Nc4nccc(-c5cccnc5)n4)c3)cc(C(F)(F)F)c2)cn1	active
COc1c(OCCCN2CCOCC2)ccc2c3n(c(=NC(=O)c4cnc(N)nc4)nc12)CCN3	active
O=C(c1ccc(Nc2nccc(-c3cc4ccccc4s3)n2)cc1)N1CCC(N2CCCC2)CC1	active
Cc1cc(Nc2cc(CN3CCOCC3)c3nc(C)c(Cc4ccc(Cl)cc4F)n3n2)n[nH]1	active
CC=CC1=C(C(=O)O)N2C(=O)[C@H](NC(=O)[C@H](N)c3ccc(O)cc3)[C@@H]2SC1	inactive
O=C(C=Cc1c(C(=O)O)[nH]c2cc(Cl)cc(Cl)c12)Nc1ccccc1	inactive
COc1cc2c(cc1-c1c(C)noc1C)ncc1[nH]c(=O)n([C@H](C)c3ccccn3)c12	active
C[C@]12CC[C@H](O)CC1=CCC1C2CC[C@]2(C)C(n3cnc4ccccc43)=CCC12 (stereo not given in full)	inactive
COc1cccc(-c2ccc(NC(=O)C3=C(C(=O)O)CCC3)c(F)c2)c1	active
Cc1ccc(S(=O)(=O)Nc2cc(Cl)ccc2C(=O)Nc2nc(-c3ccccc3)cs2)cc1	active
CC(C)(C)c1cnc(CSc2cnc(NC(=O)C3CCNCC3)s2)o1	active
COc1cc2c(NC3CCN(C(C)C)CC3)nc(C3CCCCC3)nc2cc1OCCCN1CCCC1	active
O=C(Nc1cc(C(F)(F)F)cc(C(F)(F)F)c1)c1cc(Cl)ccc1O	active
O=c1[nH]c(=O)n(C2CCCO2)cc1F (stereo not given)	inactive
Cc1cc(C(=O)N2CCN(c3cccc(Cl)c3)CC2)n(-c2ccccc2)n1	active

---

# Tested on: Tov112D
# Protocol description: Primary qHTS to identify gynecologic anti-cancer compounds using libraries of approved drugs and bioactive compounds (AID 1345084); also: nearly all actives have a fitted effect of over 55% in size; also: potency is read from the fitted curve at half-maximal effect
# Condition description: Gynecologic cancer cell panel viability, ATPlite luminescence, 48 h; series mostly up to 57.5 µM
Inconclusive results are not listed. Active and inactive are the calls of the source. The call rests on the fitted dose curve; in most records, active means well fitted cell-killing curve with a large enough effect; inconclusive means small, poorly fitted or top-dose-only effect, or effect the other way; inactive means flat fitted curve, though single readings scatter.

Compound	Potency
COC(=O)C1=C(C)NC(C)=C(C(=O)OCCN2CCN(C(c3ccccc3)c3ccccc3)CC2)C1c1cccc([N+](=O)[O-])c1 (centres undefined)	inactive
O=C(O)CCCc1c[nH]c2ccccc12	inactive
Cc1cn(-c2cc(NC(=O)c3ccc(C)c(Nc4nccc(-c5cccnc5)n4)c3)cc(C(F)(F)F)c2)cn1	inactive
O=C(O)C1(Cc2cccc(Nc3nccs3)n2)CCC(Oc2cccc(Cl)c2F)CC1 (centres undefined)	1000 nM (active)
Cc1cnc(-c2cnc(NCCNc3ccc(C#N)cn3)nc2-c2ccc(Cl)cc2Cl)[nH]1	inactive
Cn1c2ccccc2c2c3c(c4c5ccccc5n(CCC#N)c4c21)CNC3=O	inactive
CC(C)c1nn(-c2c(Cl)cccc2Cl)c2nc(Cc3ccc(OCCO)cc3)[nH]c(=O)c12	282 nM (active)
O=C1CCC[C@@H]2[C@H]3CCC[N+]4([O-])CCC[C@@H](CN12)[C@@H]34 (some centres undefined)	inactive
COc1ccc2c(OCc3nnc4ccc(-c5ccccc5)nn34)ccnc2c1	inactive

---

# Protocol description: Quantitative High-Throughput drug screen in 47 multiple myeloma cell lines against the NCATS MIPE library collection: PCM6_Riken cell viability assay (AID 1919870); also: nearly all actives have a fitted effect of over 30% in size
# Condition description: CellTiter-Glo ATP, 48 h; series mostly up to 45.8 µM
Inconclusive results are not listed. Activity calls are given as the source filed them. The call rests on the fitted dose curve; in most records, active means well fitted cell-killing curve with a large enough effect; inconclusive means small, poorly fitted or top-dose-only effect, or effect the other way; inactive means no such curve, though single readings can be large or run the other way.
Possible outcomes: active, inactive

Compound	Assigned class
CCN1CCN(Cc2ccc(-c3cc4c(N[C@H](C)c5ccccc5)ncnc4[nH]3)cc2)CC1	active
CC(C)[C@H](C(=O)Nc1ccc(C(=O)NO)cc1)c1ccccc1	active
COc1cc(C(C)C)c2c(c1)S(=O)(=O)N(COc1cc(=O)n3cccc(OCCN4CCCCC4)c3n1)C2=O	active
Cn1cc(-c2[nH]c3cc(NC(=O)[C@H](N)C4CCCCC4)cc4c3c2C=NNC4=O)cn1	active
CC1(C)CC(=O)c2c(C(F)(F)F)nn(-c3ccc(C(N)=O)c(NC4CCC(OC(=O)CN)CC4)c3)c2C1 (centres undefined)	active
COC(=O)Nc1ccc(-c2nc(N3CCOCC3)c3cnn(C4CCN(Cc5cccnc5)CC4)c3n2)cc1	active
CC(O)C1C(=O)N2C(C(=O)O)=C(SC3CNC(C(=O)N(C)C)C3)C(C)C12 (centres undefined)	inactive
Nc1ccccc1NC(=O)c1ccc(CNc2nccc(-c3cccnc3)n2)cc1	active
OCCCNc1cc(-c2ccnc(Nc3cccc(Cl)c3)n2)ccn1	active
COc1cccc2nc(-c3cccs3)nc(NN3C(=O)C=C(C)C3=O)c12	active
CN1CC[C@@H](c2c(O)cc(O)c3c(=O)cc(-c4ccccc4Cl)oc23)[C@@H](O)C1	active
C[C@@]12O[C@@H](C[C@]1(O)CO)n1c3ccccc3c3c4c(c5c6ccccc6n2c5c31)CNC4=O	active
O=C(c1ccc(Nc2nccc(-c3cc4ccccc4s3)n2)cc1)N1CCC(N2CCCC2)CC1	active
COc1cc2c(Nc3ccc(NC(=O)c4ccccc4)cc3)ncnc2cc1OCCCN1CCOCC1	active
COc1ccc(CC2SC(=O)NC2=O)cc1C(=O)NCc1ccc(C(F)(F)F)cc1 (centres undefined)	active
CCn1cc(-c2ccnc3[nH]c(-c4cccc(CN(C)C)c4)cc23)c(-c2ccc(NC(=O)N(C)C)cc2)n1	active
CC1(O)CC(c2nc(-c3ccc4ccc(-c5ccccc5)nc4c3)c3c(N)nccn23)C1 (centres undefined)	active
CC(C)c1cc(C(=O)N2Cc3ccc(CN4CCN(C)CC4)cc3C2)c(O)cc1O	active
CCc1c2c(nc3ccc(O)cc13)-c1cc3c(c(=O)n1C2)COC(=O)[C@]3(O)CC	active

---

# Protocol description: qHTS of pediatric cancer cell lines to identify multiple opportunities for drug repurposing: Confirmatory screen for NB-EBc1 cells (AID 1347115);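 also: cells exposed to compound for 48 h before the viability read; nearly all actives have a fitted effect of over 45% in size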
# Condition description: NB-EBc1 neuroblastoma cells, viability (cytotoxicity); series mostly up to 45.9 µM
Inconclusive results are not listed. Activity calls are given as the source filed them. Calls follow the shape of the dose curve; as a rule, active = well fitted cell-killing curve with a large enough effect; inconclusive = small, poorly fitted or top-dose-only effect, or effect the other way; inactive = no such curve, though single readings can be large or run the other way.
Possible outcomes: active, inactive

Compound	Assigned class
CNC(=O)c1ccc(N2C(=S)N(c3cnc(C#N)c(C(F)(F)F)c3)C(=O)C23CCC3)cc1F	inactive
COc1cccc(Nc2c(C(N)=O)cnc3c(C)cc(S(=O)(=O)c4cccc(C(=O)N(C)C)c4)cc23)c1	inactive
CC(C)(C)NC(=O)[C@H]1CN(Cc2cccnc2)CCN1C[C@@H](O)C[C@@H](Cc1ccccc1)C(=O)N[C@H]1c2ccccc2C[C@H]1O	inactive
Cc1nc(Nc2n[nH]c3c2CN(C(=O)N[C@H](CN(C)C)c2ccccc2)C3(C)C)c2sccc2n1	inactive
Cc1c(C)n(Cc2ccc(-c3ccccc3C(=O)O)cc2)c2ccc(C(=O)N[C@@H](C)c3ccc([N+](=O)[O-])cc3)cc12	inactive
COC(=O)c1ccc2c(C(=Nc3ccc(N(C)C(=O)CN4CCN(C)CC4)cc3)c3ccccc3)c(O)[nH]c2c1	inactive
Cc1ccc(NC(=O)C2(c3ccc4c(c3)OC(F)(F)O4)CC2)nc1-c1cccc(C(=O)O)c1	inactive
Cc1cnc(-c2cnc(NCCNc3ccc(C#N)cn3)nc2-c2ccc(Cl)cc2Cl)[nH]1	active
CC=CC1=C(C(=O)O)N2C(=O)[C@H](NC(=O)[C@H](N)c3ccc(O)cc3)[C@@H]2SC1	inactive
CC[C@@]1(O)C(=O)OCc2c1cc1n(c2=O)Cc2cc3cc(O)ccc3nc2-1	active
CCC1=C[C@@H]2CN(C1)Cc1c([nH]c3ccccc13)[C@@](C(=O)OC)(c1cc3c(cc1OC)N(C)[C@@H]1[C@@](O)(C(=O)OC)[C@H](OC(C)=O)[C@]4(CC)C=CCN5CC[C@]31[C@@H]54)C2	inactive
CC(NCc1ccc2c(c1)nc(NC(=O)c1ccc(-c3cn[nH]c3)s1)n2CC(C)(C)O)C(C)(C)C (stereo not given)	active
CN(C)Cc1c(C(=O)NCCOc2ccc(C(=O)NO)cc2)oc2ccccc12	active
CC=C1NC(=O)[C@H]2CSSCCC=C[C@H](CC(=O)N[C@H](C(C)C)C(=O)N2)OC(=O)[C@H](C(C)C)NC1=O	inactive
CC1(C)CCC(c2ccc(Cl)cc2)=C(CN2CCN(c3ccc(C(=O)NS(=O)(=O)c4ccc(N[C@H](CCN5CCOCC5)CSc5ccccc5)c(S(=O)(=O)C(F)(F)F)c4)cc3)CC2)C1	inactive
